So I've got pIC50 readings for Factor XIa (Homo sapiens, UniProt P03951), take a look.
pIC50: −log10 of the molar value.
readout-type: pIC50

molecule | pIC50
[O-][n+]1cc(-c2cc(Cl)ccc2-n2cnnn2)ccc1C(Cc1ccc(F)cc1)n1cc(-c2ccc(F)cc2)cn1 (stereo not drawn) [Example P22] | 8.00
Nc1ccc(-c2cnn(C(CC3CC3)c3ccc(-c4c(-n5cnnn5)ccc(Cl)c4F)c[n+]3[O-])c2)c[n+]1[O-] (stereo not drawn) [Example P25] | 8.05
O=C(O)c1cccc(-c2cnn(C(CC3CC3)c3c(F)cc(-c4cc(Cl)ccc4-n4cnnn4)c[n+]3[O-])c2)c1 (stereo not drawn) [Example P11] | 8.16

* * *

target-of-assay: human plasma kallikrein (Homo sapiens)
test-description: Kallikrein inhibition FLINT assay with quenched AMC peptide substrate Z-Gly-Pro-Arg-AMC (end point EP or kinetic KIN reads)
Assay type: biochemical
particulars: kinetic reads at 5 min intervals over 30 min; read-out: Kallikrein (KIN) IC50
readout-type: IC50 (nM)

Check out these entries, answers already filled in.
compound | target-of-assay | readout-type | result-unit | numeric-result
Cn1nncc1-c1cnn([C@H](Cn2cc(F)cn2)c2ccc(-c3c(-n4cc(Cl)nn4)ccc(Cl)c3F)c[n+]2[O-])c1 | human plasma kallikrein (Homo sapiens) | IC50 | nM | 96.7
COC(=O)Nc1ccc(-c2cnn(C(Cc3cccc(OC)c3)c3ccc(-c4c(-n5cnnn5)ccc(Cl)c4F)c[n+]3[O-])c2)cc1 (single isomer, unassigned) [Example P207] | human plasma kallikrein (Homo sapiens) | IC50 | nM | 2.9
Cn1nnc(F)c1-c1cnn([C@H](Cc2ccc(C(F)(F)F)nc2)c2ccc(-c3c(-n4cnnn4)ccc(Cl)c3F)c[n+]2[O-])c1 | human plasma kallikrein (Homo sapiens) | IC50 | nM | 17.7

a. COc1cc(C(Cc2ccccc2)n2cc(-c3ccc(C(=O)O)cc3)cn2)[n+]([O-])cc1-c1c(OCC(F)(F)F)ccc(Cl)c1F (stereo not shown)
b. O=c1ccccn1CC(c1ccc(-c2c(-n3cnnn3)ccc(Cl)c2F)c[n+]1[O-])n1cc(-c2cc[n+]([O-])c(C(F)F)c2)cn1 (single isomer, unassigned)
c. O=C(O)c1ccc(-c2cnn(C(CC3CC3C(=O)N3CCC(c4ccccc4)C3)c3ccc(-c4c(-n5cnnn5)ccc(Cl)c4F)c[n+]3[O-])c2)cc1 (stereo not shown)
d. O=C(O)c1ccc(-c2cnn([C@H](CCOC(F)F)c3ccc(-c4c(C(F)F)ccc(Cl)c4F)c[n+]3[O-])c2)cc1
Query: Thanks in advance: please rank these 4 entries by IC50, highest to lowest. API: response body holds the labels in the requested order.
Response: c, b, a, d

a. [O-][n+]1cc(-c2c(-n3cc(Br)nn3)ccc(Cl)c2F)ccc1[C@@H](CCOC(F)F)n1cc(-c2ncnn2C(F)F)cn1
b. [2H]C([2H])([2H])OC([2H])([2H])CC(c1ccc(-c2c(-n3cc(C(F)(F)F)nn3)ccc(Cl)c2F)c[n+]1[O-])n1cc(-c2ncnn2C)cn1 (single isomer, unassigned)
c. COC(=O)Nc1ccc(-c2cnn(C(CC3CCC(C)(C)CC3)c3ccc(-c4c(-n5cnnn5)ccc(Cl)c4F)c[n+]3[O-])c2)cc1 (stereo not shown)
d. O=C1c2ccccc2CN1CC(c1ccc(-c2cc(Cl)ccc2-n2cnnn2)c[n+]1[O-])n1cc(-c2ccncc2)cn1 (stereo not shown)
e. Nc1ccc(-c2cnn(C(Cn3cc(F)cn3)c3ccc(-c4c(-n5cnnn5)ccc(Cl)c4F)c[n+]3[O-])c2)c(F)n1 (stereo not shown) [Example P281]
Query: Thanks in advance: please rank these 5 entries by IC50, highest to lowest. API: response body holds the labels in the requested order.
Response: b, c, d, a, e
(b: 549 nM, c: 260 nM, d: 67.6 nM, a: 17.4 nM, e: 2.6 nM)

* * *

target-of-assay: human plasma kallikrein (Homo sapiens, UniProt P03952)
Sequence (P03952 391-638 limits assumed): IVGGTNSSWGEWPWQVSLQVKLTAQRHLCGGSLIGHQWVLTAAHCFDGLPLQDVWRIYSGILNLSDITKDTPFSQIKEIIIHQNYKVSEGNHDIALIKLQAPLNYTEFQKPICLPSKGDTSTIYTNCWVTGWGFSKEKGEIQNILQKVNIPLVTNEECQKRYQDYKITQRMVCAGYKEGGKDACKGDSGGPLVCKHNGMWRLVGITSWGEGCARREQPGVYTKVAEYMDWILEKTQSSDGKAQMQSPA
Sequence (P03952 20-390 partner limits assumed): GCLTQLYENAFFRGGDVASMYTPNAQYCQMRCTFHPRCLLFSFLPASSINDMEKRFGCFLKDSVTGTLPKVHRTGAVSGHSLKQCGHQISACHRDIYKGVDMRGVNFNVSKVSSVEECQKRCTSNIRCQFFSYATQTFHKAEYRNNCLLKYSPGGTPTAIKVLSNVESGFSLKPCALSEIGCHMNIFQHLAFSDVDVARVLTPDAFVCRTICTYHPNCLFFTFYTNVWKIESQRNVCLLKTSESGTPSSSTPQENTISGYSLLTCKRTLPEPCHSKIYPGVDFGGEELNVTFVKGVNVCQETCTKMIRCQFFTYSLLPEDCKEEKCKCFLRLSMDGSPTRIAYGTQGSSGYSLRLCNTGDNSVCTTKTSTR
test-description: Kallikrein inhibition FLINT assay with quenched AMC peptide substrate Z-Gly-Pro-Arg-AMC (end point EP or kinetic KIN reads)
Format: biochemical
particulars: kinetic reads at 5 min intervals over 30 min; read-out: Kallikrein (KIN) IC50
pIC50: −log10 of the molar value.
readout-type: pIC50

compound | numeric-result
[O-][n+]1ccc(-c2cnn(C(Cn3cccn3)c3ccc(-c4c(-n5cnnn5)ccc(Cl)c4F)c[n+]3[O-])c2)cc1 (centres unmarked) [Example P348] | 7.57
[O-][n+]1cc(-c2c(-n3cnnn3)ccc(Cl)c2F)ccc1[C@@H](CCOC(F)F)n1cc(-c2c(Cl)nnn2C(F)F)cn1 [Example P714] | 7.54
O=C(O)c1ccc(-c2cnn(C(CCOC(F)F)c3ccc(-c4c(-n5cc(C(F)(F)F)nn5)ccc(Cl)c4F)c[n+]3[O-])c2)cc1F (single isomer, unassigned) [Example P887] | 8.24
COC(=O)Nc1ccc(-c2cnn(C(CC3CCCC3)c3ccc(-c4c(-n5cnnn5)ccc(Cl)c4F)c[n+]3[O-])c2)cc1 (centres unmarked) [Example P110] | 6.91

1. COC(=O)Nc1ccc(-c2cnn(C(Cn3cccn3)c3ccc(-c4c(-n5cnnn5)ccc(Cl)c4F)c[n+]3[O-])c2)cc1 (single isomer, unassigned) [Example P272]
2. COCc1ccnn1CC(c1ccc(-c2c(-n3cnnn3)ccc(Cl)c2F)c[n+]1[O-])n1cc(-c2ccnc(C(F)(F)F)c2)cn1 (centres unmarked) [Example P464]
3. O=C(O)c1ccc(-c2cnn(C(CN3CCCC3=O)c3ccc(-c4c(C(F)F)ccc(Cl)c4F)c[n+]3[O-])c2)cc1 (single isomer, unassigned) [Example Q15]
Query: Rank items: key pIC50, increasing. API: response body holds the labels in the requested order.
Response: 3, 2, 1
(3: 6.42, 2: 6.73, 1: 8.49)

* * *

target-of-assay: human plasma kallikrein (Homo sapiens, UniProt P03952)
test-description: Kallikrein inhibition FLINT assay with quenched AMC peptide substrate Z-Gly-Pro-Arg-AMC (end point EP or kinetic KIN reads)
Type: biochemical
particulars: kinetic reads at 5 min intervals over 30 min; read-out: Kallikrein (KIN) IC50
pIC50: −log10 of the molar value.
readout-type: pIC50

molecule | pIC50
Nc1ccc(-c2cnn(C(Cn3cc(F)cn3)c3ccc(-c4c(-n5cnnn5)ccc(Cl)c4F)c[n+]3[O-])c2)c(F)n1 (single isomer, unassigned) [Example P417] | 7.11

P. CN1CCN(CC(c2ccc(-c3c(-n4cnnn4)ccc(Cl)c3F)c[n+]2[O-])n2cc(-c3ccnc(C(F)(F)F)c3)cn2)C1=O (centres unmarked) [Example P432]
Q. NC(=O)c1ccc(-c2cnn(C(Cn3cccn3)c3ccc(-c4c(-n5cc(C(F)(F)F)nn5)ccc(Cl)c4F)c[n+]3[O-])c2)cc1F (centres unmarked)
Query: Which gives the smaller pIC50 number: P or Q ? Give the label of your selection.
Response: Q
(Q: 7.93, P: 8.55)

A. NC(=O)C1CC1CC(c1ccc(-c2c(-n3cnnn3)ccc(Cl)c2F)c[n+]1[O-])n1cc(-c2ccc(N)nc2F)cn1 (racemic) [Example P201]
B. COC(=O)Nc1ccc(-c2cnn(C(CC(C)OC)c3ccc(-c4c(-n5cnnn5)ccc(Cl)c4F)c[n+]3[O-])c2)cc1 (single isomer, unassigned)
C. [O-][n+]1cc(-c2c(-n3cnnn3)ccc(Cl)c2F)ccc1C(CC1CC1)n1cc(-c2cnn(C(F)(F)F)c2)cn1 (centres unmarked)
Query: Rank items: key pIC50, increasing. API: response body holds the labels in the requested order.
Response: B, C, A

I. CCOC(=O)C1CC1CC(c1ccc(-c2cc(Cl)ccc2-n2cnnn2)c[n+]1[O-])n1cc(-c2ccc(C(=O)O)cc2)cn1 (centres unmarked) [Example P67]
II. COc1cc(C(CC2CC2)n2cc(-c3cnn(C)c(=O)c3)cn2)[n+]([O-])cc1-c1c(-n2cnnn2)ccc(Cl)c1F (centres unmarked)
III. NC(=O)c1ccc(-c2cnn(C(CCOC(F)F)c3ccc(-c4c(-n5cc(Cl)nn5)ccc(Cl)c4F)c[n+]3[O-])c2)cc1 (single isomer, unassigned) [Example P896]
Query: Rank items: key pIC50, increasing. API: response body holds the labels in the requested order.
Response: I, II, III
(I: 6.44, II: 7.69, III: 9.70)

* * *

target-of-assay: human plasma kallikrein (Homo sapiens, UniProt P03952)
test-description: Kallikrein inhibition FLINT assay with quenched AMC peptide substrate Z-Gly-Pro-Arg-AMC (end point EP or kinetic KIN reads)
Type: biochemical
particulars: kinetic reads at 5 min intervals over 30 min; read-out: Kallikrein (KIN) IC50
pIC50: −log10 of the molar value.
readout-type: pIC50

Check out these entries, answers already filled in.
compound | pIC50
NC(=O)C1CC1CC(c1ccc(-c2c(-n3cnnn3)ccc(Cl)c2F)c[n+]1[O-])n1cc(-c2ccc(N)nc2F)cn1 (single isomer, unassigned) [Example P340] | 7.41
COc1cc(C(CC2CC2)n2cc(-c3ccc(C(N)=O)c(F)c3)cn2)[n+]([O-])cc1-c1cc(Cl)ccc1C#N (stereo not drawn) | 7.60

a. Cn1nncc1-c1cnn([C@H](CCOC(F)F)c2ccc(-c3c(-n4cc(C(F)(F)F)nn4)ccc(Cl)c3F)c[n+]2[O-])c1
b. [O-][n+]1cc(-c2c(-n3cnnn3)ccc(Cl)c2F)ccc1[C@H](Cc1cn(C(F)F)nn1)n1cc(-c2ccnc(C(F)(F)F)c2)cn1
c. COc1cc(C(CC2CC2)n2cc(-c3ncnn3C(F)F)cn2)[n+]([O-])cc1-c1cc(Cl)ccc1-n1cc(C(F)(F)F)nn1 (single isomer, unassigned)
Query: Thanks in advance: please rank these 3 entries by pIC50, highest to lowest. API: response body holds the labels in the requested order.
Response: c, a, b
(c: 7.85, a: 7.38, b: 6.23)
